Origin of measurements: ChEMBL document CHEMBL1125460

For each of the molecules below, state its IC50.
test system: Plasmodium falciparum; assay: In vitro antimalarial activity against Plasmodium falciparum Indochina W2; type: functional, organism-based
Numbers only, in µg/mL.

Record excerpt, results attached:
C[C@H]1[C@@H](O[Si](C)(C)C)O[C@@H]2O[C@@]3(C)CC[C@H]4[C@H](C)CC[C@@H]1[C@@]24OO3: 0.00042
CC(=O)O[C@@H]1[C@@H](OC(C)=O)[C@@H](C)O[C@H](COC(=O)CO[C@H]2O[C@@H]3O[C@@]4(C)CC[C@H]5[C@H](C)CC[C@@H]([C@H]2C)[C@@]35OO4)[C@H]1OC(C)=O: 0.00019
C[C@H]1[C@@H](O[C@@H]2O[C@H](CO)[C@@H](O[C@@H]3O[C@H](CO)[C@@H](O)[C@H](O)[C@H]3O)[C@H](O)[C@H]2O)O[C@@H]2O[C@@]3(C)CC[C@H]4[C@H](C)CC[C@@H]1[C@@]24OO3: 0.171

The following molecules each have a reported value; give each one's IC50.
1. C[C@H]1[C@@H](O[C@@H]2O[C@H](CO)[C@H](O)[C@H](O)[C@H]2O)O[C@@H]2O[C@@]3(C)CC[C@H]4[C@H](C)CC[C@@H]1[C@@]24OO3
2. C[C@@H]1CC[C@H]2[C@@H](C)C(=O)O[C@@H]3O[C@@]4(C)CC[C@@H]1[C@]32OO4
3. C[C@H]1[C@@H](O[C@@H]2O[C@H](CO)[C@@H](O)[C@H](O)[C@H]2O)O[C@@H]2O[C@@]3(C)CC[C@H]4[C@H](C)CC[C@@H]1[C@@]24OO3

Output:
0.0356
0.00068
0.0341
